Molecular target: T1, human AMHRII (anti-Mullerian hormone receptor type 2) (human, UniProt Q16671 18-573)
T1 sequence (looked up): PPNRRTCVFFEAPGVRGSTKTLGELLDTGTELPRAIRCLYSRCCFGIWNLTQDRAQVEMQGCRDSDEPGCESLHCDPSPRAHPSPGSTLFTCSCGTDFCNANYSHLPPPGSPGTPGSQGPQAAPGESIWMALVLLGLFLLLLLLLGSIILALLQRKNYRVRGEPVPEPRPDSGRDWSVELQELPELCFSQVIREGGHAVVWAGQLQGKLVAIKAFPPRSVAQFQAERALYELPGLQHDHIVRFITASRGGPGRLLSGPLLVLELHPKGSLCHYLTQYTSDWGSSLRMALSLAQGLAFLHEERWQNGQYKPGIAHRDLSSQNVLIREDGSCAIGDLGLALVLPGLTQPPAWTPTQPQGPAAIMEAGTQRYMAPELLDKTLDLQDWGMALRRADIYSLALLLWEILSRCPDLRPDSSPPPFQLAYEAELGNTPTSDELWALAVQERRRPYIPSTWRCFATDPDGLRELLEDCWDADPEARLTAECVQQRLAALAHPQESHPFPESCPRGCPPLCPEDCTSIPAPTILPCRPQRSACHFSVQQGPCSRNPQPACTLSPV
Test: cell-based or functional assay
List of ADCC reporter bioassay, EC50 values.
Numeric answer only, unit nM assumed.

{"BINDER": "xi114A2B5 hIgG1 (antibody, V domains shown, Murine variable domains in human chimeric format, human IgG1; also called 114A2B5 (chimeric)) VH: DVQLQESGPGLVKPSQSLSLTCTVTGYSITSDYAWNWIRQFPGNKLEWMGYISYSGSTSYNPSLKSRISITRDTSKNQFFLQLNSVTTEDTATYYCARSRYSWFDYWGQGTLVTVSA VL: DIVLTQSPASLAVSLGQRATLSCRASESVDTYGNSFMHWYQQKPGQSPKLLIYRASSLESGIPARFSGSGSRTDFTLTINPVEAADVATYYCQQSNEDPYTFGGGTKLEIK", "ADCC reporter bioassay, EC50 (nM)": 0.34}

// moving on: another record for ADCC reporter bioassay, EC50
Exercise: Entry xi31D9B3 hIgG1 (antibody, V domains shown, Murine variable domains in human chimeric format, human IgG1; also called xi31D9B3 hlgG1; 31D9B3 hlgG1) VH: QVKLLQSGAALVKPGASVKMSCKASGYTFTDYWVSWVKQSHGKSLEWIGEIYPKNGVSNFNEKFKGKATLTVDKSTSTAYMELRRLTSEDSAIFYCTRQRDYWGQGVMVTVSS VL: DVVLTQTPGSLSVTLGDQASISCRSSQSLEYGDGYTYLEWYLQKPGQSPQLLIYGVSNRFSGVPDRFIGSGSGTDFTLKISRVEPEDLGVYYCFQATHDPNTFGAGTKLELK : reported ADCC reporter bioassay, EC50 = ?
Solution: 0.27
